Data provenance is patent US9969698B2.

- Experimental protocol: Solubility assessment in solvents
- Format: physicochemical
- Run parameters: acetonitrile, organic solvent or mixture, thermodynamic from solid; read-out: Solubility at RT
Assay readout: solubility at 10 min

So, `COc1cc(OC)cc(N2CCN(C(=O)Nc3nc4cc(F)ccc4nc3OC)CC2)c1` ? Its solubility at 10 min was < 100 mg/mL

* * *

- Experimental protocol: Human pharmacokinetics, dose-ranging study
- Type: in vivo
- Run parameters: human, plasma, po, 50 mg, oral capsule; 50 mg, 1 per week; Day 1; fasted; read-out: T1/2 (converted)
Assay readout: half-life (h)
Respond numerically; units are h and should not be typed.

For COc1cc(OC)cc(N2CCN(C(=O)Nc3nc4cc(F)ccc4nc3OC)CC2)c1 [RX-5902] the compound record lists half-life as 13.2

* * *

- Experimental protocol: Human pharmacokinetics, dose-ranging study
- Assay type: in vivo
- Run parameters: human, plasma, po, 150 mg, oral capsule; 150 mg, 5 per week; Day 15; fasted; read-out: Tmax
Assay readout: Tmax

Reported Tmax for `COc1cc(OC)cc(N2CCN(C(=O)Nc3nc4cc(F)ccc4nc3OC)CC2)c1` was 1 h

* * *

- Experimental protocol: Human pharmacokinetics, dose-ranging study
- Type: in vivo
- Run parameters: human, plasma, po, 250 mg, oral capsule; 250 mg, 3 per week; Day 1; fasted; read-out: AUC0-48
Assay readout: AUC(0-t)

Value of measured AUC(0-t) for the entry `COc1cc(OC)cc(N2CCN(C(=O)Nc3nc4cc(F)ccc4nc3OC)CC2)c1` : 5210 ng·h/mL

* * *

- Experimental protocol: Solubility assessment in solvents
- Format: physicochemical
- Run parameters: THF, organic solvent or mixture, thermodynamic from solid; read-out: Solubility at RT
Assay readout: solubility at 10 min

Input `COc1cc(OC)cc(N2CCN(C(=O)Nc3nc4cc(F)ccc4nc3OC)CC2)c1` . Output solubility at 10 min: < 100 mg/mL

* * *

- Experimental protocol: Human pharmacokinetics, dose-ranging study
- Assay type: in vivo
- Run parameters: human, plasma, po, 350 mg, oral capsule; 350 mg, 7 per week; Day 1; fasted; read-out: Tmax
Assay readout: Tmax (h)
Report only the number, with the unit h understood.

Lookup result for `COc1cc(OC)cc(N2CCN(C(=O)Nc3nc4cc(F)ccc4nc3OC)CC2)c1` ; measured Tmax: 1.5

* * *

- Target: phospho-p68 (Homo sapiens)
- Sequence (P17844 whole entry): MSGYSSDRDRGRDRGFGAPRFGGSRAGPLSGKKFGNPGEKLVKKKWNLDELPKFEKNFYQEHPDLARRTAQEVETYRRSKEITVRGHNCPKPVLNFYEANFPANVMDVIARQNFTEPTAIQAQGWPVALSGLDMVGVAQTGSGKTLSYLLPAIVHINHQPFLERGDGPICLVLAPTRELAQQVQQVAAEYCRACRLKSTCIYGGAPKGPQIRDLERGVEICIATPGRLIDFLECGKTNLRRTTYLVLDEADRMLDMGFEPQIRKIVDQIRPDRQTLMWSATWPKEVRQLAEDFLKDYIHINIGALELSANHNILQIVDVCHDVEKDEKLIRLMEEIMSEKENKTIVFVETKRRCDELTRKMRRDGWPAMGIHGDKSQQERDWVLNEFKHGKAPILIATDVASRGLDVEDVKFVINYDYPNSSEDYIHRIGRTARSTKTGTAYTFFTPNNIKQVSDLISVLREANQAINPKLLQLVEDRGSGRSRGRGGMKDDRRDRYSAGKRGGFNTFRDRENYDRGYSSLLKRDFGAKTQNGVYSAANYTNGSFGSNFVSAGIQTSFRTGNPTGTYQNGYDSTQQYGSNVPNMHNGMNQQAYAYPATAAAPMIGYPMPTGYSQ
Assay readout: IC50 (µM)
Express the result in µM but write the number alone.

Per the records, this compound ( `COc1cc(OC)cc(N2CCN(C(=O)Nc3nc4cc(F)ccc4nc3OC)CC2)c1` ) has IC50 equal to 0.061

* * *

- Experimental protocol: Human pharmacokinetics, dose-ranging study
- Type: in vivo
- Run parameters: human, plasma, po, 25 mg, oral capsule; 25 mg, 1 per week; Day 1; fasted; read-out: AUC0-24
Assay readout: AUC(0-t) (ng·h/mL)
Record the value in ng·h/mL, omitting the unit from your answer.

Notebook: `COc1cc(OC)cc(N2CCN(C(=O)Nc3nc4cc(F)ccc4nc3OC)CC2)c1` , AUC(0-t) read as 830

* * *

- Experimental protocol: Human pharmacokinetics, dose-ranging study
- Type: in vivo
- Run parameters: human, plasma, po, oral capsules, all subjects; read-out: Apparent terminal T1/2, range
Assay readout: half-life

Form field half-life, entry `COc1cc(OC)cc(N2CCN(C(=O)Nc3nc4cc(F)ccc4nc3OC)CC2)c1` : 5.8 to 27.6 h

* * *

- Experimental protocol: Human pharmacokinetics, dose-ranging study
- Type: in vivo
- Run parameters: human, plasma, po, 50 mg, oral capsule; 50 mg, 1 per week; Day 1; fasted; read-out: Cmax
Assay readout: Cmax
Report as: number unit

Summary for this compound, COc1cc(OC)cc(N2CCN(C(=O)Nc3nc4cc(F)ccc4nc3OC)CC2)c1 [RX-5902] : Cmax is 109 ng/mL

* * *

- Experimental protocol: Human pharmacokinetics, dose-ranging study
- Format: in vivo
- Run parameters: human, plasma, po, 425 mg, oral capsule; 425 mg, 1 per week; Day 1; fasted; read-out: Tmax
Assay readout: Tmax (h)
The reply should be a number in h, with the unit left off.

Lab note: measured Tmax of `COc1cc(OC)cc(N2CCN(C(=O)Nc3nc4cc(F)ccc4nc3OC)CC2)c1` was 2

* * *

- Experimental protocol: Human pharmacokinetics, dose-ranging study
- Type: in vivo
- Run parameters: human, plasma, po, 225 mg, oral capsule; 225 mg, 1 per week; Day 1; fasted; read-out: Tmax
- Method: In a dose-ranging study, the pharmacokinetics (PK), safety and tolerability of RX-5902 at various oral doses were evaluated. […] Plasma concentrations were measured on Days 1 and 15, for 48 hrs, using a validated LC-MS/MS assay, and noncompartmental pharmacokinetic parameters were calculated using Phoenix WinNonlin, Version 6.4. […]
Assay readout: Tmax (h)
Answer in h, number only, no unit symbol.

`COc1cc(OC)cc(N2CCN(C(=O)Nc3nc4cc(F)ccc4nc3OC)CC2)c1` has a reported Tmax of 4

* * *

- Experimental protocol: Human pharmacokinetics, dose-ranging study
- Assay type: in vivo
- Run parameters: human, plasma, po, 300 mg, oral capsule; 300 mg, 3 per week; Day 15; fasted; read-out: Cmax
Assay readout: Cmax (ng/mL)
Return type: number; implicit unit ng/mL.

Field Cmax (entry `COc1cc(OC)cc(N2CCN(C(=O)Nc3nc4cc(F)ccc4nc3OC)CC2)c1` ) reads 301

* * *

- Experimental protocol: Human pharmacokinetics, dose-ranging study
- Assay type: in vivo
- Run parameters: human, plasma, po, 300 mg, oral capsule; 300 mg, 5 per week; Day 1; fasted; read-out: Cmax
Assay readout: Cmax (ng/mL)
The response must be a number in ng/mL with no trailing unit.

Field Cmax (entry COc1cc(OC)cc(N2CCN(C(=O)Nc3nc4cc(F)ccc4nc3OC)CC2)c1 [RX-5902] ) reads 317

* * *

- Experimental protocol: Solubility assessment in solvents
- Format: physicochemical
- Run parameters: MIBK, organic solvent or mixture, thermodynamic from solid; read-out: Solubility at RT
Assay readout: solubility at 10 min

Memo: `COc1cc(OC)cc(N2CCN(C(=O)Nc3nc4cc(F)ccc4nc3OC)CC2)c1` , reported solubility at 10 min: < 100 mg/mL

* * *

- Experimental protocol: Human pharmacokinetics, dose-ranging study
- Format: in vivo
- Run parameters: human, plasma, po, 200 mg, oral capsule; 200 mg, 5 per week; Day 15; fasted; read-out: AUC0-24
Assay readout: AUC(0-t) (ng·h/mL)
Your answer is read as ng·h/mL, so omit the unit and give the number.

Item: `COc1cc(OC)cc(N2CCN(C(=O)Nc3nc4cc(F)ccc4nc3OC)CC2)c1` | AUC(0-t): 4030

* * *

- Experimental protocol: Human pharmacokinetics, dose-ranging study
- Format: in vivo
- Run parameters: human, plasma, po, 100 mg, oral capsule; 100 mg, 1 per week; Day 1; fasted; read-out: T1/2 (converted)
Assay readout: half-life (h)
Return type: number; implicit unit h.

# compound `COc1cc(OC)cc(N2CCN(C(=O)Nc3nc4cc(F)ccc4nc3OC)CC2)c1` ; its half-life = 27.6

* * *

- Experimental protocol: Human pharmacokinetics, dose-ranging study
- Assay type: in vivo
- Run parameters: human, plasma, po, 250 mg, oral capsule; 250 mg, 3 per week; Day 15; fasted; read-out: Tmax
Assay readout: Tmax (h)
Please reply with the bare figure in h and do not write the unit itself.

Just so you know, measured Tmax for `COc1cc(OC)cc(N2CCN(C(=O)Nc3nc4cc(F)ccc4nc3OC)CC2)c1` came out at 2

* * *

- Experimental protocol: Human pharmacokinetics, dose-ranging study
- Type: in vivo
- Run parameters: human, plasma, po, 200 mg, oral capsule; 200 mg, 5 per week; Day 1; fasted; read-out: Cmax
Assay readout: Cmax (ng/mL)
Please give a number only; it is taken to be in ng/mL.

In plain terms, COc1cc(OC)cc(N2CCN(C(=O)Nc3nc4cc(F)ccc4nc3OC)CC2)c1 [RX-5902] has a documented Cmax of 337

* * *

- Experimental protocol: Solubility assessment in solvents
- Type: physicochemical
- Run parameters: methanol, organic solvent or mixture, thermodynamic from solid; read-out: Solubility at RT
Assay readout: solubility at 10 min

Reported solubility at 10 min for `COc1cc(OC)cc(N2CCN(C(=O)Nc3nc4cc(F)ccc4nc3OC)CC2)c1` was < 100 mg/mL

* * *

- Experimental protocol: Solubility assessment in solvents
- Type: physicochemical
- Run parameters: methanol, 50 °C, organic solvent or mixture, thermodynamic from solid; read-out: Solubility at 50° C.
- Procedure: RX-5902 (ca. 2 mg) was weighed in a 1.5 ml clear glass vials. An aliquot of the corresponding solvent or solvent mixture was added at RT and solubility was assessed after 10 min as shown in Table 12. Solutions and suspensions were then placed into a shaking chamber at 50° C. for 10 more minutes. If no dissolution was observed, another aliquot of solvent was added and samples were placed in the shaking chamber at 50° C. for 10 more minutes. […]
Assay readout: solubility at 10 min

Value of measured solubility at 10 min for the entry `COc1cc(OC)cc(N2CCN(C(=O)Nc3nc4cc(F)ccc4nc3OC)CC2)c1` : ≥ 2500 µg/mL
